Test system: transient receptor potential cation channel C4 beta (TRPC4), mouse
Experiment: TRPC4 cation channel opening, second retest – cell-based, second round, Fluo4, HEK293 TRPC4beta/mu-opioid, 1 µM, confirmation (AID 2461)
Conditions: Fluo4 calcium fluorescence, at 1 µM
Activity calls are given as the source filed them.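 The calls were made as follows: active = primary screen active and over 50% activation in each of two duplicate runs; inactive = the rest.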
Parameter call: string, one of class 1 (active), class 0 (inactive)

compound | categoryLabel
COCCn1nnnc1C(c1cc2ccc(OC)cc2[nH]c1=O)N1CCN(C2CCCCC2)CC1 (stereo not given) | class 0
CC1CC(C)CN(CCCNC(=O)Cn2cccc2C(=O)c2ccccc2)C1 (stereo not given) | class 1
COC(=O)c1ccccc1N=Nc1c(C)[nH][nH]c1=O | class 0
COc1ccc(C2CC(c3ccccc3)Nc3nc(NC(=O)c4cccs4)nn32)cc1 (stereo not given) | class 0
CCCCN(CC)CCNC(=O)c1ccc2c(Cl)c3c(nc2c1)CCC3 | class 1

Just curious, what result did COc1ccc2nc(NCc3ccccc3)[nH]c2c1 get here?
class 0

Give the logged outcome of this assay for the following compound: CCOC(=O)C1(Cc2cccc(OC)c2)CCN(Cc2ccc(OC)c(O)c2)CC1
class 0

Dear colleague, could you share the recorded outcome for CCOc1ccc(CCNC(=O)c2ccc3c(=O)[nH]c4c(C(=O)NC(C)C)sc(=S)n4c3c2)cc1 when you have a moment?
class 0

Entry O=C(Nc1ccc(F)cc1)N1CCN2C(=O)c3ccccc3C12c1ccccc1 (stereo not given) : call = ?
class 0

For this compound, state the assay outcome: COc1ccc(/C=C/C(=O)Oc2cc(O)cc(O)c2)cc1
class 0

* * *

System: TRPC4 beta (transient receptor potential cation channel C4), mouse
Experiment: potentiation of DAMGO EC20 TRPC4 response – cell-based, Fluo-4, HEK293 TRPC4beta/mu-opioid, confirmation (AID 2555)
Settings: DAMGO EC20, Fluo-4 calcium flux, at 10 µM; hits give high values
Calls of active or inactive are those of the source.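 Rule for the calls: active = primary screen hit whose calcium fluorescence ratio, in both repeats, exceeds the weak agonist control mean by 3 SD; inactive = the rest.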
metric: potentiation

molecule | potentiation
Cc1nn(-c2ccccc2)c(Cl)c1CN(C(=O)CCl)c1ccc(Cl)cc1 | inactive
CCCN1CCN(C(=S)NCc2ccc(Cl)cc2)CC1 | 8% (active)
O=[N+]([O-])c1c(Nc2cccc(O)c2)cc(Cl)c2nonc12 | inactive
CN(C)C(CNC(=O)CCS(=O)(=O)c1ccccc1)c1ccccc1 (stereo unspecified) | inactive
CCN(CC)CCOC(=O)c1cccc(Br)c1 | 12% (active)

Turning now to a further molecule:
Record request: potentiation value, item Cc1ccc(/C=N/NC(=S)NC2CCCCC2)o1
66% (active)

* * *

Tested on: TRPC4 (mouse), co-expressed with 5HT1a in HEK293
Experiment: enhancement of serotonin-evoked TRPC4 response – cell-based, second counter screen, HEK293 TRPC4/5HT1a, Fluo-4, counter-screen for TRPC4 potentiator project, confirmation (AID 434979)
Details: Fluo-4 calcium flux, at 10 µM, serotonin added at its EC20 dose
The source made the active and inactive calls.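 Rule for the calls: active = signal rise over 3 SD above mean of control wells given weak agonist, in both repeats and first screen; inactive = the rest.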
Pick one and only one: Y (active), N (inactive)

Any idea what this test logged for CCn1c(CN2CCN(Cc3ccc(C)cc3)C(CCO)C2)nc2ccccc21 (stereo unspecified) ?
N

Write down the call the test reported for this molecule. Item: O=C(Cc1cccc2ccccc12)Nc1ccc(Br)cc1C(=O)O
N

Which outcome did this test record for the molecule O=C1CC2(CCN(S(=O)(=O)c3ccccc3F)CC2)Oc2ccccc21 ?
Y

Per the records of this test, what outcome belongs to Cc1ccccc1N1CC(O)(c2ccccc2)[N+]2=C1SCC2 (stereo unspecified) ?
N

Tell me the recorded outcome of this test for O/N=C/c1ccccc1Oc1ccc(Cl)cc1 .
N

Give the logged outcome of this assay for the following molecule: Cc1ccc(S(=O)(=O)N2CCC(C(=O)OCC(=O)N(C)CC(=O)Nc3ccc(F)cc3)CC2)cc1C
N
